Origin of the recorded values: PubChem BioAssay AID1224858

- EXPERIMENT_DESCRIPTION: Confirmation assay for measurement of the activity of small molecule inhibitors on Zika virus induced Caspase-3 activity in human astrocytes
- DETAILS: ZIKV-induced caspase-3/7 luminescence, 6 h; series mostly up to 46.1 µM
Inconclusive results are not listed. The source made the active and inactive calls. The call rests on the fitted dose curve; in most records, active means well fitted inhibition curve with a large enough effect; inconclusive means small, poorly fitted or top-dose-only effect; inactive means no such curve, though single readings can be large or run the other way.
Classes used: active, inactive

MOLECULE	ANSWER_LABEL
CC=CC[C@@H](C)C(=O)[C@H]1C(=O)N[C@@H](C(C)C)C(=O)N(C)CC(=O)N(C)[C@@H](CC(C)C)C(=O)N[C@@H](C(C)C)C(=O)N(C)[C@@H](CC(C)C)C(=O)N[C@@H](C)C(=O)N[C@H](C)C(=O)N(C)[C@@H](CC(C)C)C(=O)N(C)[C@@H](CC(C)C)C(=O)N(C)[C@@H](C(C)C)C(=O)N1C	inactive
CCN1CCC(n2cc(CNc3cc(Cl)c4ncc(C#N)c(Nc5ccc(F)c(Cl)c5)c4c3)nn2)CC1	inactive
CO[C@H]1C(=O)[C@]2(C)[C@@H](OC)C[C@H]3OC[C@@]3(OC(C)=O)[C@H]2[C@H](OC(=O)c2ccccc2)[C@]2(O)C[C@H](OC(=O)[C@H](O)[C@@H](NC(=O)OC(C)(C)C)c3ccccc3)C(C)=C1C2(C)C	inactive
COc1cccc(-c2cc(=O)c3ccccc3o2)c1N	active
CC1(C)OC2=C(C(=O)c3ccccc3C2=O)[C@H](NCc2ccccc2)[C@H]1O	active
O=C(O)[C@H](CC(=O)N1C[C@@H]2CCCC[C@H]2C1)Cc1ccccc1	inactive
O=C(O)c1cccc(-c2noc(-c3ccccc3F)n2)c1	active
COc1cc2nc(N3CCN(C(=O)C4CCCO4)CC3)nc(N)c2cc1OC (stereo unspecified)	active
CC(=NNC(=S)N1CCC1)c1ccccn1	inactive
CCOCCOC(=O)/C=C/c1ccc(OC)cc1	inactive
CS(=O)(=O)c1ccc(-c2cn3ccccc3n2)cc1	active
